Molecular target: UniProt Q15208
Sequence (Q15208 whole entry, looked up): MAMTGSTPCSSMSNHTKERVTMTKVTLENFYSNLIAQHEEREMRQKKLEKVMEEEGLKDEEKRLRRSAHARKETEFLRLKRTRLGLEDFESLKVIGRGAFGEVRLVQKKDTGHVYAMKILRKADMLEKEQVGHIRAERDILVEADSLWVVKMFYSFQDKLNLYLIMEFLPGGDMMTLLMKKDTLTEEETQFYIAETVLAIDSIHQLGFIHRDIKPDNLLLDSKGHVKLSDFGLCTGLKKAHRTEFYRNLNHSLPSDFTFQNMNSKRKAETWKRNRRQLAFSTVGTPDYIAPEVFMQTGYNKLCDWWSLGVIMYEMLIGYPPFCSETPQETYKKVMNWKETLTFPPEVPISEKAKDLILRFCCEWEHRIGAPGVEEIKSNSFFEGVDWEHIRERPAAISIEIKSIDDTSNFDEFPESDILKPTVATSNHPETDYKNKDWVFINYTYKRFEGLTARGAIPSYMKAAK
Assay: KINOMEscan competition binding
Conditions: compound 10.0 µM
MEASURED_PROPERTY: kinase still bound, per cent of control (%)
Give bare numbers, in %.

1) O=C1Nc2ccc(I)cc2/C1=C/c1cc(Br)c(O)c(Br)c1 64
2) C=CC(=O)Nc1cccc(Nc2nc(N[C@H]3CC[C@H](N(C)C)CC3)nc3c2ncn3C(C)C)c1 19
3) Cc1ccc(NC(=O)c2cccc(C(C)(C)C#N)c2)cc1Nc1ccc2ncn(C)c(=O)c2c1 100
4) COc1cc(N2CCN(C)CC2)ccc1Nc1nc(N)c(C(=O)c2c(Cl)cccc2Cl)s1 100

Give kinase still bound, per cent of control for each of the items listed below.
1. CCC(=O)N1CCN(c2ccc(-n3c(=O)ccc4cnc5ccc(-c6cnc7ccccc7c6)cc5c43)cc2C(F)(F)F)CC1
2. Cn1c(=O)n(-c2ccc(C(C)(C)C#N)cc2)c2c3cc(-c4cnc5ccccc5c4)ccc3ncc21
3. O=C(NC1CC1)c1cccc(-c2ccc3c(NC(=O)C4CC4)n[nH]c3c2)c1

Ans.
1. 100
2. 100
3. 85

Give kinase still bound, per cent of control for each of the items listed below.
1. CCN1CCN(Cc2ccc(Nc3ncc4c(n3)N(C)c3ccccc3C(=O)N4C)cc2C(F)(F)F)CC1
2. Nc1ccc(-c2ccc3ncc4ccc(=O)n(-c5cccc(C(F)(F)F)c5)c4c3c2)cn1

Ans.
[95, 100]

----------
Target: CAMK2D (human) (UniProt Q13557)
Sequence (Q13557 whole entry, looked up): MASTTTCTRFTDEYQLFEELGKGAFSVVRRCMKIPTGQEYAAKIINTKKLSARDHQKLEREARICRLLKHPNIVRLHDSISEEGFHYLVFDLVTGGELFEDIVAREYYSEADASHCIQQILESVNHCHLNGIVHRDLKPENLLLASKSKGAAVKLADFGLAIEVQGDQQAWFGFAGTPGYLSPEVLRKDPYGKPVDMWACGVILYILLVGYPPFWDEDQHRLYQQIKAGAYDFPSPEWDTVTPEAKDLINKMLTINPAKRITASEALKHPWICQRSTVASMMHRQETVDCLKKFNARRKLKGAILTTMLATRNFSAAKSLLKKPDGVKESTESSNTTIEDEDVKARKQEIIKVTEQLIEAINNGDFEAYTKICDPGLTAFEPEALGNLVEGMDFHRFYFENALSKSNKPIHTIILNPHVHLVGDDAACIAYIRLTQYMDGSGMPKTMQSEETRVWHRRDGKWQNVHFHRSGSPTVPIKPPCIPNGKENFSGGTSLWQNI
Test: KINOMEscan competition binding
Details: compound 10.0 µM
Could you please report measured kinase still bound, per cent of control for the items listed next?
One number for each entry, in %.

Example compounds with recorded kinase still bound, per cent of control:
COMPOUND	UNIT_TEXT	kinase still bound, per cent of control
Cc1cc([C@@H](C)Nc2ccccc2C(=O)O)c2nc(N3CCOCC3)cc(=O)n2c1	%	95
C=CC(=O)Nc1cccc(Nc2nc(N[C@H]3CC[C@H](N(C)C)CC3)nc3c2ncn3C(C)C)c1	%	53
Cc1ccc(C(=O)Nc2cccc(C(F)(F)F)c2)cc1Nc1cncc(C(N)=O)c1	%	100

Give kinase still bound, per cent of control for each of the items listed below.
1. O=C(NOC[C@H](O)CO)c1ccc(F)c(F)c1Nc1ccc(I)cc1F
2. C[C@@H](Oc1cc(-n2cnc3ccc(CN4CCN(C)CC4)cc32)sc1C(N)=O)c1ccccc1C(F)(F)F
3. CCCS(=O)(=O)Nc1ccc(F)c(C(=O)c2c[nH]c3ncc(-c4ccc(Cl)cc4)cc23)c1F
4. Cc1ccc(NC(=O)c2cccc(C(C)(C)C#N)c2)cc1Nc1ccc2ncn(C)c(=O)c2c1
5. O=C(NC1CC1)c1cccc(-c2ccc3c(NC(=O)C4CC4)n[nH]c3c2)c1
6. COc1cc(C(=O)NC2CCN(C)CC2)ccc1Nc1ncc2c(n1)N(C1CCCC1)C(C)CC(=O)N2C (centres undefined)

Ans.
1: 100; 2: 7.3; 3: 100; 4: 100; 5: 84; 6: 100

----------
Target: UniProtKB Q12851
Sequence (Q12851 whole entry, looked up): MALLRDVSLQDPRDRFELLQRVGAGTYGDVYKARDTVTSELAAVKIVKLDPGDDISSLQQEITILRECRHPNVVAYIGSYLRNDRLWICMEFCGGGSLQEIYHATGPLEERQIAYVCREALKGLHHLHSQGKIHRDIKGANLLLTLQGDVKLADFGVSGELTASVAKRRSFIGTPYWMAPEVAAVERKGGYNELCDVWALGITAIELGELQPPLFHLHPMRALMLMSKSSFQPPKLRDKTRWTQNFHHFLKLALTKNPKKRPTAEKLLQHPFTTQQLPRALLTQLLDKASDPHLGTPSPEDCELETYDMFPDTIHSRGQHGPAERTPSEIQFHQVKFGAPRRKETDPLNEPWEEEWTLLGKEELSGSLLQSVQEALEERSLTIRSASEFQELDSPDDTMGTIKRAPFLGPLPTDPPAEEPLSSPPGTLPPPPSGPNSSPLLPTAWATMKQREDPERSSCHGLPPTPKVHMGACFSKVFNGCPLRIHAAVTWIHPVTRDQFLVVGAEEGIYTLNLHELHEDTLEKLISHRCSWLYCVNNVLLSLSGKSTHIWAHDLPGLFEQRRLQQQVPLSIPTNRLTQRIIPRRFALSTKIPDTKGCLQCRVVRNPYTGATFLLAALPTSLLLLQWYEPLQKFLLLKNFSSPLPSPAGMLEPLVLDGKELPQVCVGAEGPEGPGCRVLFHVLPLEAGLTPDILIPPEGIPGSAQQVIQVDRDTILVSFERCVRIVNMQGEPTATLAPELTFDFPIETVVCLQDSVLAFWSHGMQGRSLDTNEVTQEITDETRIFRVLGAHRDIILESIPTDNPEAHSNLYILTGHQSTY
Assay: KINOMEscan competition binding
Settings: compound 10.0 µM
Could you please report measured kinase still bound, per cent of control for the items listed next?
Numbers only, in %.

Example compounds with recorded kinase still bound, per cent of control:
COMPOUND	kinase still bound, per cent of control / %
C=CC(=O)Nc1cccc(Oc2nc(Nc3ccc(N4CCN(C)CC4)cc3OC)ncc2Cl)c1	100
C[C@@H](Oc1cc(-n2cnc3ccc(CN4CCN(C)CC4)cc32)sc1C(N)=O)c1ccccc1C(F)(F)F	24
O=C(NC1CC1)c1cccc(-c2ccc3c(NC(=O)C4CC4)n[nH]c3c2)c1	99

Give kinase still bound, per cent of control for each of the items listed below.
1. COc1cc(C(=O)NC2CCN(C)CC2)ccc1Nc1ncc2c(n1)N(C1CCCC1)C(C)CC(=O)N2C (stereo not given)
2. C=CC(=O)Nc1cccc(Nc2nc(N[C@H]3CC[C@H](N(C)C)CC3)nc3c2ncn3C(C)C)c1
3. CC[C@@H]1C(=O)N(C)c2cnc(Nc3ccc(C(=O)NC4CCN(C)CC4)cc3OC)nc2N1C1CCCC1
4. CN(C)C/C=C/C(=O)Nc1cccc(Nc2ncc3c(n2)N(C)c2ccccc2C(=O)N3C)c1
5. Cc1cc([C@@H](C)Nc2ccccc2C(=O)O)c2nc(N3CCOCC3)cc(=O)n2c1

Ans.
[100, 31, 100, 13, 56]

Give kinase still bound, per cent of control for each of the items listed below.
1. O=C(NOC[C@H](O)CO)c1ccc(F)c(F)c1Nc1ccc(I)cc1F
2. Cc1ccc(C(=O)Nc2cccc(C(F)(F)F)c2)cc1Nc1cncc(C(N)=O)c1
3. COc1cc(N2CCN(C)CC2)ccc1Nc1nc(N)c(C(=O)c2c(Cl)cccc2Cl)s1
4. Cc1ccc(NC(=O)c2cccc(C(C)(C)C#N)c2)cc1Nc1ccc2ncn(C)c(=O)c2c1

Ans.
100
100
77
62

Give kinase still bound, per cent of control for each of the items listed below.
1. CCOc1cc2ncc(C#N)c(Nc3ccc(OCc4ccccn4)c(Cl)c3)c2cc1NC(=O)/C=C/CN(C)C
2. Cc1ccc2nc(NCCN)c3ncc(C)n3c2c1

Ans.
1. 5.2
2. 92

Give kinase still bound, per cent of control for each of the items listed below.
1. COc1cc(C(=O)NC2CCN(C)CC2)ccc1Nc1ncc2c(n1)N(C1CCCC1)CCC(=O)N2C(C)C
2. O=C1Nc2ccc(I)cc2/C1=C/c1cc(Br)c(O)c(Br)c1
3. N#Cc1c(NC(=O)c2cccc3ccccc23)sc2c1CCCC2
4. O=C(O)c1ccc(Nc2ncc3c(n2)-c2ccc(Cl)cc2C(c2c(F)cccc2F)=NC3)cc1
5. C=CC(=O)Nc1cc(NC(=O)c2ccc(C)c(NC(=O)c3ccno3)c2)cc(C(F)(F)F)c1
6. Cn1c(=O)n(-c2ccc(C(C)(C)C#N)cc2)c2c3cc(-c4cnc5ccccc5c4)ccc3ncc21

Ans.
1: 100; 2: 68; 3: 100; 4: 88; 5: 100; 6: 11

----------
System: ABL1 (human), P00519 [E255K]
Sequence (P00519 whole entry E255K, looked up): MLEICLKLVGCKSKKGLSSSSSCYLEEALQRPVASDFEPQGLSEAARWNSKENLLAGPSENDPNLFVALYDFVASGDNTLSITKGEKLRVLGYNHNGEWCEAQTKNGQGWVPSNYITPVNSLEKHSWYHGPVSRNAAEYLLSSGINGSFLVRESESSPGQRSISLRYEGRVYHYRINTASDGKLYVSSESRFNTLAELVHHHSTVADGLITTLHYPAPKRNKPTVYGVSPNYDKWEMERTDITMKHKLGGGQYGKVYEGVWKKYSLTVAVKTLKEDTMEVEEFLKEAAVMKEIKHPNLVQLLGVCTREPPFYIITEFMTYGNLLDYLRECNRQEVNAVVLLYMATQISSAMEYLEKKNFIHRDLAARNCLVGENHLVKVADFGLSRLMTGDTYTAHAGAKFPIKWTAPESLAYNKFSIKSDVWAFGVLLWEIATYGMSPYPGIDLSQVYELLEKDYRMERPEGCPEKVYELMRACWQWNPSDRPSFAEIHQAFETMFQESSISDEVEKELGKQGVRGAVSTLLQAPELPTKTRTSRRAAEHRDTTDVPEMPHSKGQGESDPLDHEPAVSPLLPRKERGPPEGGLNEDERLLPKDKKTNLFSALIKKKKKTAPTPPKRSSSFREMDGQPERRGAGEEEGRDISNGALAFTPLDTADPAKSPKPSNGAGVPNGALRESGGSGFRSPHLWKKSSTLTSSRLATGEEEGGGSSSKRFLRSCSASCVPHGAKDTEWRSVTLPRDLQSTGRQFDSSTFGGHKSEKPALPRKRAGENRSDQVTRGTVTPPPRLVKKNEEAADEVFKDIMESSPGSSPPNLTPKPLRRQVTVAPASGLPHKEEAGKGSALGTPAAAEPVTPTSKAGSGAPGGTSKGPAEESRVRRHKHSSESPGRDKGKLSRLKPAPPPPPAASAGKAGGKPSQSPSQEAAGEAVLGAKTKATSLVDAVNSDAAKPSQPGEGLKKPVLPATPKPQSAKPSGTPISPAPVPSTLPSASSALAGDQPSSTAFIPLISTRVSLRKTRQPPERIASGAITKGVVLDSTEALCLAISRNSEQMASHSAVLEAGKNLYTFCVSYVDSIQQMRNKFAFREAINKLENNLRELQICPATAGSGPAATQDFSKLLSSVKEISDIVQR
Test: KINOMEscan competition binding
Settings: compound 10.0 µM
Assign a class from recorded kinase still bound, per cent of control; defined classes: 1: < 60%; 2: ≥ 60% and < 90%; 3: ≥ 90%

Qu. Input C=CC(=O)Nc1cc(NC(=O)c2ccc(C)c(NC(=O)c3ccno3)c2)cc(C(F)(F)F)c1 ; output its category
Ans. 2

Qu. Input CC1=C(C(=O)Nc2cc3cn[nH]c3cc2F)C(c2ccc(C(F)(F)F)cc2)CC(=O)N1 (stereo unspecified) ; output its category
Ans. 2

----------
Target: NTRK1 (human)
Test: KINOMEscan competition binding
Settings: compound 10.0 µM
MEASURED_PROPERTY: kinase still bound, per cent of control (%)
Numbers only, in %.

Example compounds with recorded kinase still bound, per cent of control:
1) CCCS(=O)(=O)Nc1ccc(F)c(C(=O)c2c[nH]c3ncc(-c4ccc(Cl)cc4)cc23)c1F 90
2) COc1cc(C(=O)NC2CCN(C)CC2)ccc1Nc1ncc2c(n1)N(C1CCCC1)CCC(=O)N2C(C)C 100
3) C=CC(=O)Nc1cccc(Oc2nc(Nc3ccc(N4CCN(C)CC4)cc3OC)ncc2Cl)c1 100

Qu. Tell me measured kinase still bound, per cent of control for CCOc1cc2ncc(C#N)c(Nc3ccc(OCc4ccccn4)c(Cl)c3)c2cc1NC(=O)/C=C/CN(C)C please.
Ans. 77

----------
Could you please report measured kinase still bound, per cent of control for the items listed next?
Biological target: MAP3K7 (human) (UniProt O43318)
Sequence (O43318 whole entry, looked up): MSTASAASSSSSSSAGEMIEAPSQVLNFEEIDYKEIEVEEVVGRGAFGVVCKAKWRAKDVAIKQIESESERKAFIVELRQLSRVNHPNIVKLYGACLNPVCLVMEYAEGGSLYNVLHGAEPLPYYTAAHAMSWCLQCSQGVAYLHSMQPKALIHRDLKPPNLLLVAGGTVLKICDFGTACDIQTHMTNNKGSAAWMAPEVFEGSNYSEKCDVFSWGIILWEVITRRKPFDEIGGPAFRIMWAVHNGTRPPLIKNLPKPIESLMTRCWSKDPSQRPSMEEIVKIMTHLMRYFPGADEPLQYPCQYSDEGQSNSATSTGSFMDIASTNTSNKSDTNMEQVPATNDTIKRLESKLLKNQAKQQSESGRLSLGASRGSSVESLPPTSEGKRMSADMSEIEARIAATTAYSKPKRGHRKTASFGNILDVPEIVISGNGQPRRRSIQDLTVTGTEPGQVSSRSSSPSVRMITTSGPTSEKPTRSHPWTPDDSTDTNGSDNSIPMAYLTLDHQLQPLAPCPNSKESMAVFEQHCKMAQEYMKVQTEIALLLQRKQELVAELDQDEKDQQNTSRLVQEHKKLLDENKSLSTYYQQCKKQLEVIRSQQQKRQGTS
Test: KINOMEscan competition binding
Conditions: compound 10.0 µM
Answers are plain numbers, in %.

1) C=CC(=O)Nc1cccc(Oc2nc(Nc3ccc(N4CCN(C)CC4)cc3OC)ncc2Cl)c1 100

Give kinase still bound, per cent of control for each of the items listed below.
1. COc1cc(N2CCN(C)CC2)ccc1Nc1nc(N)c(C(=O)c2c(Cl)cccc2Cl)s1
2. CN(C)C/C=C/C(=O)Nc1cccc(Nc2ncc3c(n2)N(C)c2ccccc2C(=O)N3C)c1
3. O=C1Nc2ccc(I)cc2/C1=C/c1cc(Br)c(O)c(Br)c1
4. Cc1ccc(C(=O)Nc2cccc(C(F)(F)F)c2)cc1Nc1cncc(C(N)=O)c1

Ans.
78
6.2
67
100

----------
Could you please report measured kinase still bound, per cent of control for the items listed next?
Molecular target: EPHA7 (human) (UniProt Q15375)
Sequence (Q15375 whole entry, looked up): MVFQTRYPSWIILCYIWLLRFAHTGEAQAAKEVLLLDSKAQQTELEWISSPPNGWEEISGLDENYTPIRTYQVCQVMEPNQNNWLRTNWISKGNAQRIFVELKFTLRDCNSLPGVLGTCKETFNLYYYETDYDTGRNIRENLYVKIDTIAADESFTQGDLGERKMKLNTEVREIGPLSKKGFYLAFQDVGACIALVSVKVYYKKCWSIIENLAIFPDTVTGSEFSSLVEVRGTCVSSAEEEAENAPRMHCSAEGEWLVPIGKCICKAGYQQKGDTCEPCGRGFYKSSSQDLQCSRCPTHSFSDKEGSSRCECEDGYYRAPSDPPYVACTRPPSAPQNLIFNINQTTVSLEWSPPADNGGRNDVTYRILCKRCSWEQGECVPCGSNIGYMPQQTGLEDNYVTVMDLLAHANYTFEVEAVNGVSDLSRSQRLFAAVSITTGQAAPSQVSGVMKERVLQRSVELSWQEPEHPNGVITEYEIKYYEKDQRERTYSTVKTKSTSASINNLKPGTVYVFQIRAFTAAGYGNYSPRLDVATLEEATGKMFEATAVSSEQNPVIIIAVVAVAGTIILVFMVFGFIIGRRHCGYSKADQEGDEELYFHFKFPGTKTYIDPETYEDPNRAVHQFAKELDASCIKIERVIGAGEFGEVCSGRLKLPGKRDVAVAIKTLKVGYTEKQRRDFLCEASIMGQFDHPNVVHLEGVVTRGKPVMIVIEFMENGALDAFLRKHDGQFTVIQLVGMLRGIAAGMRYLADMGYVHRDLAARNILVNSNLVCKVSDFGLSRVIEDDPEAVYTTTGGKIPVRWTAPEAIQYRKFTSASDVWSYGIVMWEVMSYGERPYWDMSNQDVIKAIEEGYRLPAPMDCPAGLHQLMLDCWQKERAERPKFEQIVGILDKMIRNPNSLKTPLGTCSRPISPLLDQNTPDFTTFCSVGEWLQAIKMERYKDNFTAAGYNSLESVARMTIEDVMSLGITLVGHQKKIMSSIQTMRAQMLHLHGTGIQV
Assay: KINOMEscan competition binding
Settings: compound 10.0 µM
Give bare numbers, in %.

COMPOUND	kinase still bound, per cent of control / %
CCC(=O)N1CCN(c2ccc(-n3c(=O)ccc4cnc5ccc(-c6cnc7ccccc7c6)cc5c43)cc2C(F)(F)F)CC1	98
COc1cc(C(=O)NC2CCN(C)CC2)ccc1Nc1ncc2c(n1)N(C1CCCC1)C(C)CC(=O)N2C (centres undefined)	100
CCCS(=O)(=O)Nc1ccc(F)c(C(=O)c2c[nH]c3ncc(-c4ccc(Cl)cc4)cc23)c1F	100
OCCCNc1cc(-c2ccnc(Nc3cccc(Cl)c3)n2)ccn1	100
Cc1ccc2nc(NCCN)c3ncc(C)n3c2c1	100
COc1cc(N2CCN(C)CC2)ccc1Nc1nc(N)c(C(=O)c2c(Cl)cccc2Cl)s1	88

Give kinase still bound, per cent of control for each of the items listed below.
1. C=CC(=O)Nc1cccc(Oc2nc(Nc3ccc(N4CCN(C)CC4)cc3OC)ncc2Cl)c1
2. CN(C)C/C=C/C(=O)Nc1cccc(Nc2ncc3c(n2)N(C)c2ccccc2C(=O)N3C)c1

Ans.
1. 100
2. 100

Qu. Tell me measured kinase still bound, per cent of control for CCOc1cc2ncc(C#N)c(Nc3ccc(OCc4ccccn4)c(Cl)c3)c2cc1NC(=O)/C=C/CN(C)C please.
Ans. 97

Measured values drawn from the kinase profiling compilation of Christmann-Franck et al. (2016) for this set.
